# method-notes: chemical genetic growth profiling, strain panel (AID 1159580);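 note: tested at 20 µM; growth read once vehicle control cultures reached saturation at 30 °C; 1 = growth at the plate median or of vehicle wells; lower values mean less growth of the strain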
# run-conditions: S. cerevisiae deletion strains, growth OD, locus YER155C, strain BEM2, hits give low values
The campaign covered roughly 5,500 compounds. About 2,000 (36%) were called active. Roughly 18% stayed inconclusive and do not appear here. The list shows a part of the results.
endpoint: normalized growth
Simply state the number, no unit and no words.

CC1=CC(=O)C(C(C)C)=CC1=O :: 0.871
CN(C)C(=O)C(CCN1CCC(O)(c2ccc(Cl)cc2)CC1)(c1ccccc1)c1ccccc1 :: 1.01
CSCCC(N)C(=O)NC(CC(C)C)C(=O)NC(Cc1ccccc1)C(=O)O (stereo not given) :: 1.01
O=c1c(O)cccc2c(C3Oc4cc(O)cc(O)c4CC3O)cc(O)c(O)c12 (stereo not given) :: 0.489

Exercise: Which normalized growth value is on record for O=C(CCCN1CCC2(CC1)C(=O)NCN2c1ccccc1)c1ccc(F)cc1 ?
Solution: 1
